The reported measurements were obtained from patent US10533015B1.

# setup.conditions: Volumetric flask method; sesame oil; heating temp. 60 °C, obs. temp. 25 °C
Listed compounds paired with reported Solubility by volumetric flask method: Sesame oil
measurement.label: Solubility by volumetric flask method: Sesame oil

- given.smiles: "CCCCCCCCCCCOC(=O)OCOc1ccc2c3c1O[C@H]1C(=O)CC[C@@]4(O)C(C2)N(CC2CC2)CC[C@]314"
  observed.result: ">400.4 mg/mL"
- given.smiles: "CCCCCCCC/C=C/CCCCCCCC(=O)Oc1ccc2c3c1O[C@H]1C(=O)CC[C@@]4(O)C(C2)N(CC2CC2)CC[C@]314"
  observed.result: ">399.8 mg/mL"
- given.smiles: "C=C1CC[C@@]2(O)C3Cc4ccc(OC(=O)OCCCCCCCCCCC)c5c4[C@@]2(CCN3CC2CC2)[C@H]1O5"
  observed.result: ">400.7 mg/mL"
- given.smiles: "C=C1CC[C@@]2(O)C3Cc4ccc(OCOC(=O)OCCCCCCCCCCC)c5c4[C@@]2(CCN3CC2CC2)[C@H]1O5"
  observed.result: ">400.6 mg/mL"

----------
# protocol.details: Polymorph screening of solid state drug substances
# setup.conditions: Heptane; dried solid after 50 °C 72 hours

- compound: "C=C1CC[C@@]2(O)C3Cc4ccc(OC(=O)NC(C)(C)C)c5c4[C@@]2(CCN3CC2CC2)[C@H]1O5 [Compound 40]"
  XRPD results (Dried): "Pattern A"
- compound: "C=C1CC[C@@]2(O)C3Cc4ccc(OC(=O)OCCCCCCCCCCCCCCCC)c5c4[C@@]2(CCN3CC2CC2)[C@H]1O5 [Compound 19]"
  XRPD results (Dried): "Pattern A"
- compound: "CCCCCCCCCCCCOC(=O)Oc1ccc2c3c1O[C@H]1C(=O)CC[C@@]4(O)C(C2)N(CC2CC2)CC[C@]314 [Compound 11]"
  XRPD results (Dried): "Pattern B"
- compound: "CCCCCCCCCCCCCCCCOC(=O)Oc1ccc2c3c1O[C@H]1C(=O)CC[C@@]4(O)C(C2)N(CC2CC2)CC[C@]314 [Compound 21]"
  XRPD results (Dried): "Pattern A"
- compound: "C=C1CC[C@@]2(O)C3Cc4ccc(OC(=O)CCCCCCCCCCCCCCCCCCCCC)c5c4[C@@]2(CCN3CC2CC2)[C@H]1O5 [Compound 14]"
  XRPD results (Dried): "Pattern B"
- compound: "C=C1CC[C@@]2(O)C3Cc4ccc(OC(=O)OCCCCCCCCCCCCCC)c5c4[C@@]2(CCN3CC2CC2)[C@H]1O5 [Compound 31]"
  XRPD results (Dried): "Pattern A"
- compound: "C=C1CC[C@@]2(O)C3Cc4ccc(OC(=O)CCCCCCCCCCCCCCCCCCC)c5c4[C@@]2(CCN3CC2CC2)[C@H]1O5 [Compound 16]"
  XRPD results (Dried): "Pattern A"
- compound: "CCCCCCCCCCCCCCCC(=O)Oc1ccc2c3c1O[C@H]1C(=O)CC[C@@]4(O)C(C2)N(CC2CC2)CC[C@]314 [Compound 55]"
  XRPD results (Dried): "Pattern B"

----------
# protocol.details: Plasma stability assay, monkey plasma
# Assay type: in vitro ADME, cynomolgus monkey
# setup.conditions: 2 μM, 37° C., 120 min (head)
# Procedure: Plasma stability determination of the test compounds in rat, dog, cynomolgus monkey and human plasma is performed using HPLC-MS. For rat, incubations are carried out in 96-well polypropylene plates in 5 aliquots of 70 μL each (one for each time point). […] Five time points are analyzed (0, 15, 120, 480 and 1440 min). […] All incubations are performed in duplicates. The samples are analyzed by HPLC-MS. The percentage of parent compound remaining after incubation in plasma is determined.

- molecule: "CCCCCCCCCCCCCCCC(=O)OC1CCCn2c1nc(C)c(CCN1CCC(c3noc4cc(F)ccc34)CC1)c2=O (centres unmarked) [Paliperidone palmitate, reference compound]"
  % remaining at time point [%]: 89.5
- molecule: "C=C1CC[C@@]2(O)C3Cc4ccc(OC(=O)CCCCCCC/C=C/CCCCCCCC)c5c4[C@@]2(CCN3CC2CC2)[C@H]1O5"
  % remaining at time point [%]: 72.7
- molecule: "C=C1CC[C@@]2(O)C3Cc4ccc(OC(=O)OCCCCCCCCCCCC)c5c4[C@@]2(CCN3CC2CC2)[C@H]1O5"
  % remaining at time point [%]: 74.3
- molecule: "C=C1CC[C@@]2(O)C3Cc4ccc(OCOC(=O)OCCCCCCCCCCCC)c5c4[C@@]2(CCN3CC2CC2)[C@H]1O5"
  % remaining at time point [%]: 93.5
- molecule: "CCCCCCCCCCCC(=O)OCN1C(=O)CCc2ccc(OCCCCN3CCN(c4cccc(Cl)c4Cl)CC3)cc21 [Aripiprazole Lauroxil, reference compound]"
  % remaining at time point [%]: 94.5

----------
# setup.conditions: Cottonseed oil; heating temp. 60 °C, obs. temp. 40 °C
measurement.label: Approximate Solubility (mg/mL) in Excipient: Cottonseed oil

- molecule: "C=C1CC[C@@]2(O)C3Cc4ccc(OC(=O)CCCCCCCCCCCCCCCCC)c5c4[C@@]2(CCN3CC2CC2)[C@H]1O5 [Compound 12]"
  observed.result: ">398.5 mg/mL"
- molecule: "C=C1CC[C@@]2(O)C3Cc4ccc(OC(=O)CCCCCCC/C=C/CCCCCCCC)c5c4[C@@]2(CCN3CC2CC2)[C@H]1O5 [Compound 15]"
  observed.result: ">401 mg/mL"
- molecule: "CCCCCCCCCCCCCCCCOC(=O)Oc1ccc2c3c1O[C@H]1C(=O)CC[C@@]4(O)C(C2)N(CC2CC2)CC[C@]314 [Compound 21]"
  observed.result: "101 to 134.8 mg/mL"
- molecule: "CCCCCCCCCCCCCCCC(=O)Oc1ccc2c3c1O[C@H]1C(=O)CC[C@@]4(O)C(C2)N(CC2CC2)CC[C@]314 [Compound 55]"
  observed.result: ">400.1 mg/mL"
- molecule: "C=C1CC[C@@]2(O)C3Cc4ccc(OC(=O)CCCCCCCCCCCCCCCCCCC)c5c4[C@@]2(CCN3CC2CC2)[C@H]1O5 [Compound 16]"
  observed.result: "201 to 403 mg/mL"

----------
Listed compounds paired with reported % remaining at time point
# protocol.details: Plasma stability assay, rat plasma
# Format: in vitro ADME
# setup.conditions: 10 μM, 37° C., 480 min
measurement.label: % remaining at time point (%)

- compound: "CCCCC/C=C\\C/C=C\\CCCCCCCC(=O)Oc1ccc2c3c1O[C@H]1C(=O)CC[C@@]4(O)C(C2)N(CC2CC2)CC[C@]314 [Compound 53]"
  unit.spec: "%"
  observed.result: 7.3
- compound: "C=C1CC[C@@]2(O)C3Cc4ccc(OC(=O)CCCCCCC/C=C\\CCCCCCCC)c5c4[C@@]2(CCN3CC2CC2)[C@H]1O5 [Compound 36]"
  unit.spec: "%"
  observed.result: 39.8
- compound: "C=C1CC[C@@]2(O)C3Cc4ccc(OC(=O)OCCCCCCCCCCCCCC)c5c4[C@@]2(CCN3CC2CC2)[C@H]1O5 [Compound 31]"
  unit.spec: "%"
  observed.result: 54.4

----------
# setup.conditions: Water; heating temp. 40 °C, obs. temp. 40 °C

- given.smiles: "CCCCCCCCCCCCCCCCOC(=O)OCOc1ccc2c3c1O[C@H]1C(=O)CC[C@@]4(O)C(C2)N(CC2CC2)CC[C@]314"
  Equilibrium solubility (mg/mL) Water: "<0.001 mg/mL"
- given.smiles: "C=C1CC[C@@]2(O)C3Cc4ccc(OCOC(=O)CCCCCCCCCCCCCCC)c5c4[C@@]2(CCN3CC2CC2)[C@H]1O5"
  Equilibrium solubility (mg/mL) Water: "<0.001 mg/mL"
- given.smiles: "CCCCCCCCCCCCCCCCCC(=O)Oc1ccc2c3c1O[C@H]1C(=O)CC[C@@]4(O)C(C2)N(CC2CC2)CC[C@]314"
  Equilibrium solubility (mg/mL) Water: "<0.001 mg/mL"
- given.smiles: "C=C1CC[C@@]2(O)C3Cc4ccc(OC(=O)OCCCCCCCCCC)c5c4[C@@]2(CCN3CC2CC2)[C@H]1O5"
  Equilibrium solubility (mg/mL) Water: "<0.0002 mg/mL"
- given.smiles: "C=C1CC[C@@]2(O)C3Cc4ccc(OC(=O)OCCCCCCCCCCCCCCCCCC)c5c4[C@@]2(CCN3CC2CC2)[C@H]1O5"
  Equilibrium solubility (mg/mL) Water: "<0.001 mg/mL"
- given.smiles: "C=C1CC[C@@]2(O)C3Cc4ccc(OCOC(=O)OCCCCCCCCCCCC)c5c4[C@@]2(CCN3CC2CC2)[C@H]1O5"
  Equilibrium solubility (mg/mL) Water: "<0.001 mg/mL"

----------
# protocol.details: Polymorph screening of solid state drug substances
# setup.conditions: Acetone; target conc. 100 mg/ml; 50 °C

- molecule: "C=C1CC[C@@]2(O)C3Cc4ccc(OC(=O)NC(C)(C)C)c5c4[C@@]2(CCN3CC2CC2)[C@H]1O5 [Compound 40]"
  Visual observation 50° C.: "Clear"
- molecule: "C=C1CC[C@@]2(O)C3Cc4ccc(OC(=O)OCCCCCCCCCCCCCC)c5c4[C@@]2(CCN3CC2CC2)[C@H]1O5 [Compound 31]"
  Visual observation 50° C.: "Clear"
- molecule: "C=C1CC[C@@]2(O)C3Cc4ccc(OC(=O)CCCCCCCCCCCCCCCCCCCCC)c5c4[C@@]2(CCN3CC2CC2)[C@H]1O5 [Compound 14]"
  Visual observation 50° C.: "Clear"
